Assay: physchem
Conditions: pH 7, aqueous buffer, thermodynamic from solid
Experimental: Then 0.2 g of each active ingredient was weighed into the batch to give a supersaturated solution. […] The mixture was then stirred at room temperature for 72 hours, using a magnetic stirrer. After a rest time of one hour, unsolubilized active ingredient was removed by filtration. The resulting clear or opaque solution was then analyzed for its active ingredient content by means of UV spectroscopy or HPLC.

# Structure Smiles, solubility at 72 h
records = [
    ("Clc1ccccc1C(c1ccccc1)(c1ccccc1)n1ccnc1", "< 0.1 mg/mL"),
]
